Entry source: ChEMBL document CHEMBL5029145

assay.overview: Apparent terminal half life in rat administered via inhalation
Format: ADME
experimental.context: in vivo, inhaled or intranasal
readout.label: half-life (h)
Give bare numbers, in h.

Cc1nc(Nc2cccc(N3CCCC3=O)n2)sc1-c1cc2c(c(S(C)(=O)=O)c1)C(=O)N([C@@H](C)C1CC1)C2 = 7.1
Cc1nc2sc1-c1cc3c(c(c1)S(=O)(=O)NCCOCCNC(=O)c1cccc(n1)N2)C(=O)N([C@@H](C)C1CC1)C3 = 6.9
Cc1nc2sc1-c1cc3c(c(c1)S(=O)(=O)NCCN(C)CCNC(=O)c1cccc(n1)N2)C(=O)N([C@@H](C)C1CC1)C3 = 7.5

Now consider the entry below.
According to the records, this compound Cc1nc(Nc2cccc(N3CCOCC3=O)n2)sc1-c1cc2c(c(S(=O)(=O)NC3COC3)c1)C(=O)N([C@@H](C)C1CC1)C2 displays half-life of 4.2

###

assay.overview: Solubility of compound in at pH 7.4 at 1 mg/ml using crystalline form of sample incubated for 24 hrs by HPLC MS analysis
Assay type: physicochemical
readout.label: solubility thermodynamic at 24 h (µM)
Give bare numbers, in µM.

Worked cases, answers included:
Cc1nc(Nc2cccc(N3CCCC3=O)n2)sc1-c1cc2c(c(S(C)(=O)=O)c1)C(=O)N([C@@H](C)C1CC1)C2 = 0.054
Cc1nc2sc1-c1cc3c(c(c1)S(=O)(=O)NCCOCCNC(=O)c1cccc(n1)N2)C(=O)N([C@@H](C)C1CC1)C3 = 0.084
Cc1nc(Nc2cccc(N3CCOCC3=O)n2)sc1-c1cc2c(c(S(=O)(=O)NC3COC3)c1)C(=O)N([C@@H](C)C1CC1)C2 = 0.337

Now consider the entry below.
According to the records, this compound Cc1nc2sc1-c1cc3c(c(c1)S(=O)(=O)NCCN(C)CCNC(=O)c1cccc(n1)N2)C(=O)N([C@@H](C)C1CC1)C3 displays solubility thermodynamic at 24 h of 1.09

###

target.or.test.system: Phosphatidylinositol 4,5-bisphosphate 3-kinase catalytic subunit alpha isoform (Homo sapiens)
Sequence (P42336 whole entry, canonical isoform): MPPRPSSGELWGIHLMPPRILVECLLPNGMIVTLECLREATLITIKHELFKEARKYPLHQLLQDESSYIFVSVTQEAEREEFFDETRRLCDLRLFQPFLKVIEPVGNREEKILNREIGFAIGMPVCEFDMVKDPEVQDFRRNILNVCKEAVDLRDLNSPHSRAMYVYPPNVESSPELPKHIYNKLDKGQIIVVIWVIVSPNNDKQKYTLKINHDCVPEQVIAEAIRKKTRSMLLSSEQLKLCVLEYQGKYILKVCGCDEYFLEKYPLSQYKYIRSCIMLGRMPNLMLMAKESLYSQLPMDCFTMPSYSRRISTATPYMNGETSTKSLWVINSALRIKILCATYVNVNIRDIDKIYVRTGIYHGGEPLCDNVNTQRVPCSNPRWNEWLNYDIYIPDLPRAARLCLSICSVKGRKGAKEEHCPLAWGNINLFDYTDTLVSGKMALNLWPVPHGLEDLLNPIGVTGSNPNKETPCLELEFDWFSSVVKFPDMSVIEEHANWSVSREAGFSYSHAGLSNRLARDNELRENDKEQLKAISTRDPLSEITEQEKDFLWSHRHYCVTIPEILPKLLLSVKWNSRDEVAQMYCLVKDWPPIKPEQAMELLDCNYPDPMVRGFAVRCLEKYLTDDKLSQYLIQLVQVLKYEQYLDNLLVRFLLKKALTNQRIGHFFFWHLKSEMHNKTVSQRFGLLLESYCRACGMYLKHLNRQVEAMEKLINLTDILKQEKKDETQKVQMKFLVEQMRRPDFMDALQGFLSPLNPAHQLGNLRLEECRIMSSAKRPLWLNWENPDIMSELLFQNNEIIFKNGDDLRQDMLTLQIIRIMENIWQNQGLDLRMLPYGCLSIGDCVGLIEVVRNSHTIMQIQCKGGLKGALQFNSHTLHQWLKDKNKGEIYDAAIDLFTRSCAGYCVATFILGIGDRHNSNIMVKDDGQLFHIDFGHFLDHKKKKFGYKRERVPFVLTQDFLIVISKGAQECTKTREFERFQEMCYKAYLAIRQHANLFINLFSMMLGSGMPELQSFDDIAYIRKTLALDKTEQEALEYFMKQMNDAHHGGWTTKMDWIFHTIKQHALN
assay.overview: Inhibition of recombinant human PI3Kalpha assessed as reduction in ADP production using Dic8-PIP2 as substrate pre-treated for 15 mins followed by substrate addition measured after 60 mins by ADP-glo assay
readout.label: IC50 (nM)
Answers are plain numbers, in nM.

Worked cases, answers included:
CNS(=O)(=O)c1cc(-c2sc(Nc3cccc(N4CCOCC4=O)n3)nc2C)cc2c1C(=O)N([C@@H](C)C1CC1)C2 = 39.8
Cc1nc(Nc2cccc(N3CCCCC3=O)n2)sc1-c1cc2c(c(S(C)(=O)=O)c1)C(=O)N([C@@H](C)C1CC1)C2 = 31.6

According to the records, this compound Cc1nc(Nc2cccc(N3CCN(C)C3=O)n2)sc1-c1cc2c(c(S(C)(=O)=O)c1)C(=O)N([C@@H](C)C1CC1)C2 displays IC50 of 39.8

###

Answer each item with its documented IC50.
target.or.test.system: Phosphatidylinositol 4,5-bisphosphate 3-kinase catalytic subunit delta isoform (Homo sapiens)
Sequence (O00329 whole entry, canonical isoform): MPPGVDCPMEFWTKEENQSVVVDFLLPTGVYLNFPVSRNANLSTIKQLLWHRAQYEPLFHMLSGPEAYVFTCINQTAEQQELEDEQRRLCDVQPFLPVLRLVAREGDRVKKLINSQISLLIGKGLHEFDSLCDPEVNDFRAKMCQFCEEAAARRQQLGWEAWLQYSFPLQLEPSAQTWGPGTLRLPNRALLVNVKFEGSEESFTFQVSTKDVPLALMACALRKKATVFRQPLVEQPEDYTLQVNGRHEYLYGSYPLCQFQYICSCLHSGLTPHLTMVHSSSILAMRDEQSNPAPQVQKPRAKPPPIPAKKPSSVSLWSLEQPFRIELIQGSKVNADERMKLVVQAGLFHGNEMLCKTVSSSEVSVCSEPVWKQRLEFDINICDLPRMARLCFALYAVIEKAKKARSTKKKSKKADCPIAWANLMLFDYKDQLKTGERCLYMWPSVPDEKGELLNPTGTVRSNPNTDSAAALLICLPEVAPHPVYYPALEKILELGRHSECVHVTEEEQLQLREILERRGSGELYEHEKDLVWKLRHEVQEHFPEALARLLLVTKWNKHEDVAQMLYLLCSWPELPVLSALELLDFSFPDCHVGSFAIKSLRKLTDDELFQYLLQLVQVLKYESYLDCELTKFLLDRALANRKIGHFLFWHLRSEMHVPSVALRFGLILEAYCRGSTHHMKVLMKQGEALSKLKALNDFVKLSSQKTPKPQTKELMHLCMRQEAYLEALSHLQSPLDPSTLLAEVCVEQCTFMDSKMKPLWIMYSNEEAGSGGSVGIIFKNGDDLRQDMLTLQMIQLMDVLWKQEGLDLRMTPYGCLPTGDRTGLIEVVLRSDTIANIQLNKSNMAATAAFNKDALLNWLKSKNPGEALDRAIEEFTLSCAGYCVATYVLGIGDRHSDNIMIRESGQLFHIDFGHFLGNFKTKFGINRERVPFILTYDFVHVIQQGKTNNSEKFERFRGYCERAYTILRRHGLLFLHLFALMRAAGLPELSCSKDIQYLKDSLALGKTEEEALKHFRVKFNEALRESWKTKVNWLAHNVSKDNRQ
assay.overview: Inhibition of recombinant human PI3Kdelta assessed as reduction in ADP production using Dic8-PIP2 as substrate pre-treated for 15 mins followed by substrate addition measured after 60 mins by ADP-glo assay
Answer with the number, then the unit.

Working through the 4 compounds below one at a time, give IC50 for each.
1. Cc1nc2sc1-c1cc3c(c(c1)S(=O)(=O)NCCN(C)CCNC(=O)c1cccc(n1)N2)C(=O)N([C@@H](C)C1CC1)C3
2. CCN(CC)C(=O)c1cccc(Nc2nc(C)c(-c3cc4c(c(S(=O)(=O)NC)c3)C(=O)N([C@@H](C)C3CC3)C4)s2)n1
3. Cc1nc(Nc2cccc(N3CCCC3=O)n2)sc1-c1cc2c(c(S(C)(=O)=O)c1)C(=O)N([C@@H](C)C1CC1)C2
4. CC(=O)Nc1nc(C)c(-c2cc3c(c(S(=O)(=O)N(C)c4ccc(CN(C)C)cc4)c2)C(=O)N([C@@H](C)C2CC2)C3)s1

stdout:
1. 0.501 nM
2. 158 nM
3. 0.631 nM
4. 25.1 nM
